Test system: Grp94
Test: Competitive binding fluorescence polarization (FP) assay, Grp94
Details: selectivity over Hsp90α; n.s. = non-selective
PROPERTY MEASURED: Fold selective for Grp94 (fold)

Completed entries (count: 10):
CCc1ccccc1Cc1cnnn1CCc1c(Cl)c(O)cc(O)c1C(=O)OC
12
COC(=O)c1c(O)cc(O)c(Cl)c1CCn1nncc1Cc1ccc(OC)cc1
7
CCCSc1ccccc1Cc1cnnn1CCc1c(Cl)c(O)cc(O)c1C(=O)OC
78
COC(=O)c1c(O)cc(O)c(Cl)c1CCn1nncc1Cc1ccccc1CCC(F)(F)F
70
COC(=O)c1c(O)cc(O)c(Cl)c1CCn1nncc1Cc1ccccc1
8
COC(=O)c1c(O)cc(O)c(Cl)c1CCn1nncc1Cc1cccc(Cl)c1
3
COC(=O)c1c(O)cc(O)c(Cl)c1CCn1nncc1Cc1ccc(Cl)c(Cl)c1
5
COC(=O)c1c(O)cc(O)c(Cl)c1CCn1nncc1Cc1ccccc1SC(C)C
5
CCCc1ccccc1Cc1cnnn1CCc1c(Cl)c(O)cc(O)c1C(=O)OC
121
CCSc1ccccc1Cc1cnnn1CCc1c(Cl)c(O)cc(O)c1C(=O)OC
43

I = COC(=O)c1c(O)cc(O)c(Cl)c1CCn1nnnc1Cc1ccccc1
II = COC(=O)c1c(O)cc(O)c(Cl)c1CCn1nncc1Cc1ccc(Cl)cc1
III = CCCCc1ccccc1Cc1cnnn1CCc1c(Cl)c(O)cc(O)c1C(=O)OC
Data request: Put these in order: smallest Fold selective for Grp94 first, largest last. Note for the reader: the ranking is given by listing the labels in the order requested.
Data returned: I, II, III
(I: 3 fold, II: 9 fold, III: 78 fold)

a = COC(=O)c1c(O)cc(O)c(Cl)c1CCn1nncc1Cc1ccccc1CC(C)C
b = CCOc1ccccc1Cc1cnnn1CCc1c(Cl)c(O)cc(O)c1C(=O)OC
Data request: Pick one, a or b : lowest reported Fold selective for Grp94. # reply format: chosen label
Data returned: a
(a: 6 fold, b: 30 fold)
